biological target: 3-hydroxy-3-methylglutaryl-coenzyme A reductase (Rattus norvegicus) (UniProt P51639); assay: In vitro rat HMG-CoA reductase inhibitory activity required to inhibit sterol synthesis in cell free system with pravastatin as reference compound
true means recorded Relative potency is 60 or above; false means it is below 60.

The following compounds have reported results that may help.
- chemical smiles: "CC(C)c1nc2c(c(C3CC3)nn2-c2ccccc2)c(-c2ccc(F)cc2)c1/C=C/[C@@H](O)C[C@@H](O)CC(=O)O"
  class name: "false"
- chemical smiles: "Cc1nn2c(-c3ccc(F)cc3)c(/C=C/[C@@H](O)C[C@@H](O)CC(=O)O)c(C3CC3)nc2c1C"
  class name: "false"
- chemical smiles: "Cc1nn(-c2ccccn2)c2nc(C3CC3)c(/C=C/[C@@H](O)C[C@@H](O)CC(=O)O)c(-c3ccc(F)cc3)c12"
  class name: "true"
- chemical smiles: "Cc1nn(C(C)(C)C)c2nc(C3CC3)c(/C=C/[C@@H](O)C[C@@H](O)CC(=O)O)c(-c3ccc(F)cc3)c12"
  class name: "true"

Let's switch to this compound now.
*Q* Please indicate if the recorded Relative potency for CC(C)c1cc2c(-c3ccc(F)cc3)c(/C=C/[C@@H](O)C[C@@H](O)CC(=O)O)c(C(C)C)nc2s1 meets or exceeds 60.
*A* false

###

In this section, each of the compounds is paired with its reported inhibition.
Biological target: UniProtKB P51639
Sequence (whole entry): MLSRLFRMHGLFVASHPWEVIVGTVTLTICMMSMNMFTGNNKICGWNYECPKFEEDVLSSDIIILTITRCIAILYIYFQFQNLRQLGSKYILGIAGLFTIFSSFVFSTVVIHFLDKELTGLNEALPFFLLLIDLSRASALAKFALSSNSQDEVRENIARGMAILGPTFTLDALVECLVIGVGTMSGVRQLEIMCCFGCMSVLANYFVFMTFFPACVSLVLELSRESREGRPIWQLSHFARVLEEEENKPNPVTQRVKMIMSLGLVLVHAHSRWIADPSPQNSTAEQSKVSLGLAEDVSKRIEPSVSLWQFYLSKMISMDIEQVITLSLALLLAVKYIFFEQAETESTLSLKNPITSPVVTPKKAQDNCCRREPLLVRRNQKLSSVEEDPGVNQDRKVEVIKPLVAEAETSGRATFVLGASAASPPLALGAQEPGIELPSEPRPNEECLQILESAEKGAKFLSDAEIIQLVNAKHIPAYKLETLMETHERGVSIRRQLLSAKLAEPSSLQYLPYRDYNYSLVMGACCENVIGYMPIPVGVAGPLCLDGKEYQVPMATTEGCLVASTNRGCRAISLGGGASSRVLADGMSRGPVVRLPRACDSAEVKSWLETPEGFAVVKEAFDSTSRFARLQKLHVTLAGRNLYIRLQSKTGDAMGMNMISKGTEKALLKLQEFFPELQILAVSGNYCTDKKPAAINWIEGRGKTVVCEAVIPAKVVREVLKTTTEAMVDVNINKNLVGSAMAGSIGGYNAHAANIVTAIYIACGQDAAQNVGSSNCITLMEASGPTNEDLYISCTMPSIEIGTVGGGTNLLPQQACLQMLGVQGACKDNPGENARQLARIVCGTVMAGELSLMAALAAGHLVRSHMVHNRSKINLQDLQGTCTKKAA
Test: In vivo hepatic cholesterol synthesis inhibitory activity in male Sprague-Dawley rat after oral administration at a concentration of 0.2 mg/kg
Type: functional, organism-based
Design: dose 0.2 mg/kg
Report the figure in % without appending any unit label.

Some compounds with recorded inhibition:
- chemical smiles: "Cc1nn(-c2ccccc2)c2nc(C(C)C)c(/C=C/[C@@H](O)C[C@@H](O)CC(=O)O)c(-c3ccc(F)cc3)c12"
  readout kind: "inhibition"
  endpoint result: 3.3
- chemical smiles: "CC(C)c1nc2c(c(C3CC3)nn2C)c(-c2ccc(F)cc2)c1/C=C/[C@@H](O)C[C@@H](O)CC(=O)O"
  readout kind: "inhibition"
  endpoint result: 42.9
- chemical smiles: "Cc1cc2nc(C(C)C)c(/C=C/[C@@H](O)C[C@@H](O)CC(=O)O)c(-c3ccc(F)cc3)n2n1"
  readout kind: "inhibition"
  endpoint result: -6.1

Considering Cc1nn(C)c2nc(C3CC3)c(/C=C/[C@@H](O)C[C@@H](O)CC(=O)O)c(-c3ccc(F)cc3)c12 , its inhibition with UniProtKB P51639 was recorded as 35.5

Considering CC(C)c1nc2c(c(-c3ccccc3)nn2C)c(-c2ccc(F)cc2)c1/C=C/[C@@H](O)C[C@@H](O)CC(=O)O , its inhibition with UniProtKB P51639 was recorded as 37

Considering CC(C)c1nc2cc(-c3ccccc3)nn2c(-c2ccc(F)cc2)c1/C=C/[C@@H](O)C[C@@H](O)CC(=O)O , its inhibition with UniProtKB P51639 was recorded as -1.4

Considering CCc1c(C)sc2nc(C(C)C)c(/C=C/[C@@H](O)C[C@@H](O)CC(=O)O)c(-c3ccc(F)cc3)c12 , its inhibition with UniProtKB P51639 was recorded as 7.9
